Listing: inhibition of selected compounds
assay: growth inhibition of non-replicating M. tuberculosis (AID 488890); settings: Mycobacterium tuberculosis non-replicating, at 25 µM, stronger effect = higher value;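 also: plate controls were DMSO cells for no effect and high antibiotic wells for full effect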
In all, about 320,000 compounds went through this assay and about 1,300 (0.41%) were called active. About 3% were inconclusive and are not listed. Only a sample is shown. Results with a measured potency or affinity are listed apart.
Number only, in %; omit the unit.

Record excerpt, results attached:
Cc1cc(N2CCN(c3ccccc3)CC2)n2nnnc2n1 | -6.03
O=C(NCc1ccc2c(c1)OCO2)c1c(Cl)cccc1Cl | 3.82
O=C(CNC(=O)c1ccccc1)N/N=C/c1cc(Br)ccc1O | 38.3
COC(=O)COc1cc(Cl)c(C=O)cc1OC | 65.7
O=C(NCc1ccc2c(c1)OCO2)c1ccc(Br)s1 | 70.4

inhibition recorded for this compound, `Oc1ccc(Br)cc1/C=N/NC(=S)NCCc1ccccc1` , is 45.2

Form: compound = `O=C(CSCc1cnn(-c2ccccc2)c1-n1cccc1)N1CCN(Cc2ccccc2)CC1` ; inhibition = 2.12

Entry `COc1cc(/C=N/Nc2ccc(Cl)c(C(=O)O)c2)ccc1OC(=O)c1ccccc1F` , inhibition reported as 39

Entry `COC(=O)COc1ccc(/C=N/NC(=O)c2ccc(N(Cc3ccccc3)S(C)(=O)=O)cc2)cc1` ; inhibition = 64.2

inhibition reading for `O=C(CNC(=O)c1ccccc1Br)N/N=C/c1cc(Br)ccc1O` : 17.8

For reference, reported inhibition for `CCN(C/C=C/c1ccccc1OC)Cc1ccccc1` stands at 27.1

----------
Let's look at some compounds and their measured inhibition.
experiment: growth inhibition of non-replicating M. tuberculosis (AID 488890); details: Mycobacterium tuberculosis non-replicating, at 25 µM, stronger effect = higher value;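 also: plate controls were DMSO cells for no effect and high antibiotic wells for full effect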
Out of some 320,000 compounds screened, about 1,300 (0.41%) were called active. Roughly 3% stayed inconclusive and do not appear here. Only a sample is shown. Entries with a potency or affinity are not part of this list.
Just the number please, in %, no unit attached.

c1ccc(-c2nn3c(C4CCCCC4)nnc3s2)nc1 | 9
O=C(COC(=O)c1cc2ccccc2o1)c1ccccc1 | 51.9
CC(=O)Nc1cccc(NC(=O)c2cc3ccccc3o2)c1 | 32.4
O=C(O)c1ccc(Sc2nnnn2-c2ccccc2)c([N+](=O)[O-])c1 | 29.1
Cn1nnnc1Sc1ccc(C(=O)O)cc1[N+](=O)[O-] | -12.4
O=C(Nc1ccccc1)c1ccc(OC(=O)c2cc3ccccc3o2)cc1 | 45.2

Value of inhibition reported for the compound `CCCCN(C(=O)C1CCC1)c1c(N)n(CCC)c(=O)[nH]c1=O` is -13.3

Sample `CC(C)C(=O)Nc1cccc(NC(=O)c2cc3ccccc3o2)c1` ; inhibition observed: 2.48

The reported inhibition of the compound COc1ccc(OC)c(C(=O)NC2CCSc3ccccc32)c1 (configuration not stated) was 3.7

Looking up `O=C(c1cccc(F)c1F)N1CCCC1` , I found its inhibition recorded as -8.96

Reported inhibition of `O=C(Nc1ccc(NC(=O)c2cc3ccccc3o2)cc1)c1ccco1` : 2.59

// inhibition lookup, compound = CCOC(=O)c1cc(-c2ccccc2)n(CC2CC(c3ccc(OC)cc3)=NO2)n1 (configuration not stated) , result: 0.81

----------
experiment: growth inhibition of non-replicating M. tuberculosis (AID 488890); settings: Mycobacterium tuberculosis non-replicating, at 25 µM, stronger effect = higher value;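 also: plate controls were DMSO cells for no effect and high antibiotic wells for full effect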
Out of some 320,000 compounds screened, about 1,300 (0.41%) were called active. Another 3% or so got no clear call; they are omitted. Not all results are given here. Potency and affinity values are given separately.
Label no if inhibition falls below 30%; label yes in every other case.

Illustrative cases are given below, each with its answer.
Cc1ccc(C(=O)Nc2cccc3ccccc23)o1 | no
Cc1ccc(C(=O)NCC(=O)OCn2nnc3ccccc3c2=O)cc1 | no
O=C(CNC(=O)c1ccco1)N/N=C/c1ccccc1[N+](=O)[O-] | no

Ask: Determine whether measured inhibition meets or exceeds 30% for `O=C(COC(=O)c1ccc([N+](=O)[O-])o1)Nc1cccc2ccccc12`
Result: yes

Ask: Record `C[C@@H]1CN([C@H](C)CO)C(=O)c2cc(NC(=O)C3CCCCC3)ccc2O[C@@H]1CN(C)Cc1ccc(C(F)(F)F)cc1` ; criterion: inhibition no lower than 30%. Met?
Result: no

Ask: Quick check: does `CS(=O)(=O)N(CC(=O)N1CCOCC1)c1cc(C(F)(F)F)ccc1Cl` have inhibition greater than or equal to 30%?
Result: no

Ask: I'd appreciate it if you could say whether `Cc1ccc(OCCn2ccnc2)c(C)c1` has inhibition at least equal to 30%.
Result: no
